B1: SOAT1 (parent)
chain: GVLILFLTFFAFLHCWLNAFAEML

Variants of: B1
Test: protein stability index of a GFP-peptide fusion (GPS, HEK-293T) (PSI 1-6); higher = more stable;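 note: lentivirally expressed fusions sorted by FACS into six bins by GFP to DsRed ratio, PSI derived from sequencing read proportions per bin multiplied by bin number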
Conditions: c terminus: a fixed tail appended
experimental_readout: protein stability index

Past entries and their recorded results:
[[record]]
entry_sequence = "GVLIRFLTFFAFLHCWLNAFAEML"
recorded_result = 2.57

[[record]]
entry_sequence = "GVLILFLTFFAFLHCQLNAFAEML"
recorded_result = 2.55

[[record]]
entry_sequence = "GVDILFLTFFAFLHCWLNAFAEML"
recorded_result = 2.13


Kindly consider the entry below.
Item: "GVHILFLTFFAFLHCWLNAFAEML" | protein stability index: 2.34
